Reference source for all entries: patent US20260216170A1

Attribute: DC50
- target-entity: Human BCL-XL protein (N-terminal HiBiT tagged BCL-XL expressed in HT1080 cells) (Homo sapiens, UniProt Q07817)
- Construct: expressed in transfected cells; host or cells: HT-1080 (ATCC CCL-121), stably transduced with lentivirus pLV-UBC-N-HiBiT-BCL-XL-PGK-puro and selected with puromycin
- Sequence (Q07817 whole entry): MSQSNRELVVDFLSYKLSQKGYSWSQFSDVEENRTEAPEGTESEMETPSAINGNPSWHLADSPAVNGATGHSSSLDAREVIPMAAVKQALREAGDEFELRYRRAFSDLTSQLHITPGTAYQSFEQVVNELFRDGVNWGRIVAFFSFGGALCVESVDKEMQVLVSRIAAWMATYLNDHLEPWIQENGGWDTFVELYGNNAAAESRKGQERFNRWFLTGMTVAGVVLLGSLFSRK
- run-description: HiBiT Based Degradation Assay
- Type: cell-based
- particulars: BCL-XL degradation, HT1080 cells expressing N-HiBiT-BCL-XL, 24 hours incubation, normalized with DMSO control; geometric mean for multiple data points; read-out: EC50 (24 h)

compound	measured-result
Cn1nc(C2CCC(=O)NC2=O)c2ccc(NC(=O)CN3CCC4(CC3)CC(Oc3ccc(-c5ccc(N6CCc7ccnc(C(=O)Nc8nc9ccccc9s8)c7C6)nc5C(=O)O)c(C(F)(F)F)c3)C4)c(F)c21 (stereo not drawn)	10 to 100 nM

*Q* Item under review: Cc1cc(OCCCC2CCN(CC(=O)Nc3cc4c(cc3F)c(C3CCC(=O)NC3=O)nn4C)CC2)ccc1-c1ccc(N2CCc3cccc(C(=O)Nc4nc5ccccc5s4)c3C2)nc1C(=O)O (stereo not drawn) . Reported DC50?
*A* 10 to 100 nM

*Q* Look up DC50 for this compound: C[C@H]1C[C@@H](CCCOc2ccc(-c3ccc(N4CCc5cccc(C(=O)Nc6nc7ccccc7s6)c5C4)nc3C(=O)O)c(C(F)(F)F)c2)CCN1CC(=O)Nc1ccc2c(C3CCC(=O)NC3=O)nn(C)c2c1 (stereo partly drawn) [Compound 209a]
*A* 10 to 100 nM

*Q* Return reported DC50; argument: Cn1nc(C2CCC(=O)NC2=O)c2ccc(NC(=O)CN3CCC4(CC3)CC(Oc3cccc(-c5ccc(N6CCc7cccc(C(=O)Nc8nc9ccccc9s8)c7C6)nc5C(=O)O)c3C(F)(F)F)C4)nc21 (stereo not drawn)
*A* < 10 nM

*Q* Any idea what its DC50 is? The compound is Cc1c(OC2CC3(CCN(CC(=O)Nc4ccc5c(C6CCC(=O)NC6=O)nn(C)c5n4)CC3)C2)cccc1-c1ccc(N2CCc3cccc(C(=O)Nc4nc5ccccc5s4)c3C2)nc1C(=O)O (stereo not drawn)
*A* < 10 nM

*Q* Would you kindly share the measured DC50 for Cc1cc(O[C@@H](C)CCC2CCN(CC(=O)Nc3ccc4c(C5CCC(=O)NC5=O)nn(C)c4c3)CC2)ccc1-c1ccc(N2CCc3ccnc(C(=O)Nc4nc5ccccc5s4)c3C2)nc1C(=O)O (single isomer, unassigned) [Compound 133b] ?
*A* 10 to 100 nM

*Q* Entry under review: Cc1c(OCC[C@@H]2C[C@H]3CC[C@@H](C2)N3CC(=O)Nc2ccc3c(C4CCC(=O)NC4=O)nn(C)c3c2)cccc1-c1ccc(N2CCc3cccc(C(=O)Nc4nc5ccccc5s4)c3C2)nc1C(=O)O (stereo partly drawn) [Compound 174a] . Reported DC50?
*A* < 10 nM

*Q* Given the entry COc1c(NC(=O)CN2CCC3(CC2)CC(COc2ccc(-c4ccc(N5CCc6cccc(C(=O)Nc7nc8ccccc8s7)c6C5)nc4C(=O)O)c(C)c2)C3)ccc2c(C3CCC(=O)NC3=O)nn(C)c12 (stereo not drawn) , report its measured DC50.
*A* < 10 nM

*Q* GET /values?readout=DC50&item= Cn1nc(C2CCC(=O)NC2=O)c2ccc(NC(=O)CN3CCC(CCCOc4ccc(-c5ccc(N6CCc7cccc(C(=O)Nc8nc9ccccc9s8)c7C6)nc5C(=O)O)c(F)c4)CC3)cc21 (stereo not drawn)
*A* < 10 nM

---

- target-entity: Human BCL-XL protein (N-terminal HiBiT tagged BCL-XL expressed in HT1080 cells) (Homo sapiens)
- Construct: expressed in transfected cells; host or cells: HT-1080 (ATCC CCL-121), stably transduced with lentivirus pLV-UBC-N-HiBiT-BCL-XL-PGK-puro and selected with puromycin
- run-description: HiBiT Based Degradation Assay
- Assay type: cell-based
- particulars: bottom of BCL-XL degradation curve (remaining HiBiT-BCL-XL signal vs DMSO control), HT1080 cells, 24 hours incubation
- Protocol: HiBiT Based Degradation Assay Human BCL-XL protein coding open reading frame fused with N-terminal HiBiT coding sequence (N-HiBiT-BCL-XL) was synthesized from Integrated DNA Technologies (IDT). Next, N-HiBiT-BCL-XL sequence was cloned into pLV-UBC-PGK-Puro, a lentivirus plasmid purchased from Vectorbuilder, to generate pLV-UBC-N-HiBiT-BCL-XL-PGK-puro. […] After incubation, luminescence was read on a PHERAstar FSX Plate Reader (BMG). […]
property-label: Ymin (24 h)

Examples from the recorded data:
compound	Ymin (24 h)
Cc1c(OC[C@H]2C[C@@H]2CC2CCN(CC(=O)Nc3ccc4c(C5CCC(=O)NC5=O)nn(C)c4c3)CC2)cccc1-c1ccc(N2CCc3cccc(C(=O)Nc4nc5ccccc5s4)c3C2)nc1C(=O)O (single isomer, unassigned) [Compound 1004a]	B (30% ≤ Ymin < 50%)
COc1c(NC(=O)CN2CCC(CCCOc3ccc(-c4ccc(N5CCc6cccc(C(=O)Nc7nc8ccccc8s7)c6C5)nc4C(=O)O)c(C(F)(F)F)c3)CC2)ccc2c(C3CCC(=O)NC3=O)nn(C)c12 (stereo not drawn)	A (Ymin < 30%)
Cc1cc(OCC2CC3(CCN(CC(=O)Nc4ccc5c(C6CCC(=O)NC6=O)nn(C)c5c4)CC3)C2)ccc1-c1ccc(N2CCc3ccnc(C(=O)Nc4nc5ccccc5s4)c3C2)nc1C(=O)O (stereo not drawn)	A (Ymin < 30%)
Cc1c(OCC2CC3(CCN(CCOc4ccc5c(C6CCC(=O)NC6=O)nn(C)c5c4)CC3)C2)cccc1-c1ccc(N2CCc3cccc(C(=O)Nc4nc5ccccc5s4)c3C2)nc1C(=O)O (stereo not drawn)	B (30% ≤ Ymin < 50%)
Cc1cc(OCC2CC3(CCN(CC(=O)Nc4ccc5c(C6CCC(=O)NC6=O)nn(C)c5c4C)CC3)C2)ccc1-c1ccc(N2CCc3cccc(C(=O)Nc4nc5ccccc5s4)c3C2)nc1C(=O)O (stereo not drawn)	B (30% ≤ Ymin < 50%)

*Q* Would you kindly share the measured Ymin (24 h) for C[C@H](CCC1CCN(CC(=O)Nc2ccc3c(C4CCC(=O)NC4=O)nn(C)c3c2)CC1)Oc1ccc(-c2ccc(N3CCc4cccc(C(=O)Nc5nc6ccccc6s5)c4C3)nc2C(=O)O)c(C(F)(F)F)c1 (single isomer, unassigned) [Compound 138b] ?
*A* B (30% ≤ Ymin < 50%)

*Q* Recorded Ymin (24 h) for C[C@H](COc1ccc(-c2ccc(N3CCc4cccc(C(=O)Nc5nc6ccccc6s5)c4C3)nc2C(=O)O)c(C(F)(F)F)c1)CC1CCN(CC(=O)Nc2ccc3c(C4CCC(=O)NC4=O)nn(C)c3c2)CC1 (single isomer, unassigned) [Compound 130b] , please?
*A* B (30% ≤ Ymin < 50%)

*Q* Any idea what Ymin (24 h) was measured for COc1c(NC(=O)CN2CCC3(CC2)CC(Oc2ccc(-c4ccc(N5CCc6ccnc(C(=O)Nc7nc8ccccc8s7)c6C5)nc4C(=O)O)c(C(F)(F)F)c2)C3)ccc2c(C3CCC(=O)NC3=O)nn(C)c12 (stereo not drawn) ?
*A* B (30% ≤ Ymin < 50%)

*Q* Name the reported Ymin (24 h) value associated with the compound COc1c(NC(=O)CN2CCC3(CC2)CC(Oc2ccc(-c4ccc(N5CCc6cccc(C(=O)Nc7nc8ccccc8s7)c6C5)nc4C(=O)O)c(C)c2)C3)ccc2c(C3CCC(=O)NC3=O)nn(C)c12 (stereo not drawn)
*A* A (Ymin < 30%)

---

- target-entity: Human BCL-XL protein (N-terminal HiBiT tagged BCL-XL expressed in HT1080 cells) (Homo sapiens, UniProt Q07817)
- Construct: expressed in transfected cells; host or cells: HT-1080 (ATCC CCL-121), stably transduced with lentivirus pLV-UBC-N-HiBiT-BCL-XL-PGK-puro and selected with puromycin
- run-description: HiBiT Based Degradation Assay
- Type: cell-based
- particulars: bottom of BCL-XL degradation curve (remaining HiBiT-BCL-XL signal vs DMSO control), HT1080 cells, 24 hours incubation
property-label: Ymin (24 h)

molecule	Ymin (24 h)
COc1c(NC(=O)CN2CCC(CCCOc3ccc(-c4ccc(N5CCc6ccnc(C(=O)Nc7nc8ccccc8s7)c6C5)nc4C(=O)O)c(C(F)(F)F)c3)CC2)ccc2c(C3CCC(=O)NC3=O)nn(C)c12 (stereo not drawn) [Compound 158]	B (30% ≤ Ymin < 50%)
Cn1nc(C2CCC(=O)NC2=O)c2ccc(NC(=O)CN3CCC(CCCOc4cccc(-c5ccc(N6CCc7cccc(C(=O)Nc8nc9ccccc9s8)c7C6)nc5C(=O)O)c4C(F)(F)F)CC3)nc21 (stereo not drawn) [Compound 145]	C (50% ≤ Ymin < 70%)
COc1c(NC(=O)CN2CC[C@H](CCCOc3cccc(-c4ccc(N5CCc6cccc(C(=O)Nc7nc8ccccc8s7)c6C5)nc4C(=O)O)c3C)C[C@@H]2C)ccc2c(C3CCC(=O)NC3=O)nn(C)c12 (stereo partly drawn) [Compound 208b]	B (30% ≤ Ymin < 50%)
Cc1cc(OC[C@@H](C)CC2CCN(CC(=O)Nc3ccc4c(C5CCC(=O)NC5=O)nn(C)c4c3)CC2)ccc1-c1ccc(N2CCc3ccnc(C(=O)Nc4nc5ccccc5s4)c3C2)nc1C(=O)O (single isomer, unassigned) [Compound 140b]	A (Ymin < 30%)
Cc1c(OCC[C@@H]2C[C@@H]3CN(CC(=O)Nc4ccc5c(C6CCC(=O)NC6=O)nn(C)c5c4)C[C@@H]3C2)cccc1-c1ccc(N2CCc3cccc(C(=O)Nc4nc5ccccc5s4)c3C2)nc1C(=O)O (stereo partly drawn) [Compound 173a]	B (30% ≤ Ymin < 50%)
COc1c(NC(=O)CN2CCC3(CC2)CC(COc2ccc(-c4ccc(N5CCc6cccc(C(=O)Nc7nc8ccccc8s7)c6C5)nc4C(=O)O)c(C)c2)C3)ccc2c(C3CCC(=O)NC3=O)nn(C)c12 (stereo not drawn) [Compound 128]	A (Ymin < 30%)

*Q* Look up Ymin (24 h): Cc1cc(OCCC[C@@H]2CCN(CC(=O)Nc3ccc4c(C5CCC(=O)NC5=O)nn(C)c4c3)[C@@H](C)C2)ccc1-c1ccc(N2CCc3cccc(C(=O)Nc4nc5ccccc5s4)c3C2)nc1C(=O)O (stereo partly drawn) [Compound 210a]
*A* A (Ymin < 30%)

*Q* For the molecule shown here, COc1c(NC(=O)CN2CCC(CCCOc3ccc(-c4ccc(N5CCc6cccc(C(=O)Nc7nc8ccccc8s7)c6C5)nc4C(=O)O)c(F)c3)CC2)ccc2c(C3CCC(=O)NC3=O)nn(C)c12 (stereo not drawn) [Compound 201] , give the reported Ymin (24 h).
*A* A (Ymin < 30%)

*Q* # lookup: Ymin (24 h) of Cc1c(OCC2CC3(CCN(CC(=O)Nc4ccc5c(C6CCC(=O)NC6=O)nn(C)c5c4C(F)(F)F)CC3)C2)cccc1-c1ccc(N2CCc3cccc(C(=O)Nc4nc5ccccc5s4)c3C2)nc1C(=O)O (stereo not drawn) [Compound 137]
*A* C (50% ≤ Ymin < 70%)
